measuredTarget: RBP4-TTR interaction (Homo sapiens (Human), UniProt P02753)
assayRemarks: HTRF (TR-FRET) assay for antagonists of retinol-induced RBP4-TTR interaction
testSettings: in the presence of 1 μM retinol
Overview of reported IC50 across a group of molecules:
Report the value in µM with no unit label.

Illustrative cases are given below, each with its answer.
molecule | parameterMeasured | reportedMeasurement
O=C(c1nc2ncc(CCO)cn2n1)N1C[C@@H]2CN(c3cc(F)ccc3C(F)(F)F)C[C@@H]2C1 [Compound 7q] | IC50 | 0.491
O=C(c1nc2ncccn2n1)N1C[C@H]2C[C@@H](c3cc(F)ccc3C(F)(F)F)C[C@H]2C1 [Compound 7h] | IC50 | 0.41
CC(C)c1ccccc1[C@@H]1C[C@@H]2CN(C(=O)c3nc4ncccn4n3)C[C@@H]2C1 [Compound 10c] | IC50 | 0.0408
O=C(c1nc2ncc(CCO)cn2n1)N1C[C@@H]2CN(c3ccccc3C(F)(F)F)C[C@@H]2C1 [Compound 7o] | IC50 | 0.257
O=C(c1nc2ncc(CCO)cn2n1)N1C[C@@H]2CN(c3cc(F)ccc3C(F)(F)F)C[C@@H]2C1 [Compound 7p] | IC50 | 0.15

Query string: Could you share which IC50 value was measured for CC(=O)OCCc1cnc2nc(C(=O)N3C[C@H]4C[C@@H](c5ccccc5C(F)(F)F)C[C@H]4C3)nn2c1 [Compound 7l] ?
Result string: 0.23

Query string: Could you share which IC50 value was measured for O=C(c1nnc2ncccn12)N1C[C@H]2C[C@@H](c3ccccc3C(F)(F)F)C[C@H]2C1 [Compound 7b] ?
Result string: 0.661

Query string: Could you share which IC50 value was measured for O=C(c1nc2nc(C(F)(F)F)ccn2n1)N1C[C@H]2C[C@@H](c3ccccc3OC(F)(F)F)C[C@H]2C1 [Compound 9i] ?
Result string: 20.4

Query string: Could you share which IC50 value was measured for Cc1ccn2c(C(=O)N3C[C@H]4C[C@@H](c5ccccc5C(F)(F)F)C[C@H]4C3)nnc2n1 [Compound 7g] ?
Result string: 0.415

Query string: Could you share which IC50 value was measured for Cc1ccn2cc(C(=O)N3C[C@H]4C[C@@H](c5ccccc5OC(F)(F)F)C[C@H]4C3)nc2c1 [Compound 9h] ?
Result string: 2.48

// data source = patent US12168664B2
